- Test system: RXF-631 renal
- Test Name: NCI tumour cell line growth inhibition, 48 h
# reported TGI; entries follow

Below, each entry is followed by its recorded TGI result.
> print(dat)
                                   molecule  system.under.test  test.value
1          Cn1c(=O)c2[nH]cnc2n(CC(=O)O)c1=O      RXF-631 renal    > 100 µM
2  CCC[CH2][Sn]1([CH2]CCC)[O]CC([CH2][Sn]([c]2ccccc2)([c]2ccccc2)[c]2ccccc2)[O]1 (centres undefined)      RXF-631 renal     30.5 µM
3        CN(C)C(=S)/N=c1\ssc(=S)n1Cc1ccccn1      RXF-631 renal    > 100 µM
4  CC(C)(C)[Si](Nc1ccccc1)(c1ccccc1)c1ccccc1      RXF-631 renal     29.6 µM
5           CN(Cc1ccccc1)c1nc(=[N+](C)C)ss1      RXF-631 renal    > 100 µM
6  COC(=O)C1CCC(N2C(=O)CCC2C(=O)OC)=N1 (centres undefined)      RXF-631 renal    > 100 µM

Prompt: Give reported TGI for COC(=O)C(C(=O)C(=O)Nc1ccc(C)cc1C)c1nc2ccc([N+](=O)[O-])cc2[nH]c1=O (centres undefined) (RXF-631 renal)
Completion: > 100 µM

Prompt: # return TGI of CCOC(=O)C1CCn2c(nc3c(=O)n(C)c(=O)n(C)c32)S1 (centres undefined) (system: RXF-631 renal)
Completion: > 100 µM

Prompt: Specify the recorded TGI for `c1ccc([P+](CCC[P+](c2ccccc2)(c2ccccc2)c2ccccc2)(c2ccccc2)c2ccccc2)cc1` , system: RXF-631 renal.
Completion: > 100 µM

====

- Test system: RXF 393 renal
- Test Name: NCI tumour cell line growth inhibition, 48 h
Listed next: entries and their corresponding GI50.

Reference set (3 entries):
> print(dat)
                                   compound  parameter.measured  test.value
1  COC(=O)C1=C2CO[C@@H]3C[C@H]4C(C)(C)CCC[C@]4(C)C(=CC1)[C@]23C                GI50     50.9 µM
2  COc1ccc2nc(C3=CN(C4OC(CO)C(O)C(O)C4O)C4C=CC=CC34)sc2c1 (centres undefined)                GI50     34.6 µM
3                OCCCCC#Cc1ccccc1C#Cc1cccs1                GI50     15.8 µM

Prompt: Identify the reported GI50 for the following entry. `CSc1ccc(C(=O)/C=C/c2ccc(F)cc2)cc1`
Completion: > 100 µM

Prompt: Read off the recorded GI50 for `O=C1C(Nc2cccc(O)c2)=C(Sc2ccc(Cl)cc2)C(=O)N1Cc1ccccc1`
Completion: 3.9 µM

Prompt: Look up and report measured GI50 for this entry: `c1cc(-c2cnn3nc(N4CCOCC4)ccc23)nc(NC2CC2)n1`
Completion: 4.58 µM

Prompt: Tell us which GI50 value is on record for `CN(C)CCN1C(=O)c2cccc3c(-c4ccc5ncn(C6CCCCC6)c5c4)ccc(c23)C1=O`
Completion: 1.35 µM

Prompt: Item `CN(C)CCC(=O)NCc1c2nc3ccccc3nc2n2ccccc12` : provide GI50
Completion: 54.8 µM

Prompt: Fill in GI50 for record `COc1cc(/C=N/O)nc(-c2ccccn2)c1`
Completion: 0.723 µM
